These entries and their values trace back to PubChem BioAssay (NCI).

Tested on: CCRF-CEM leukemia
Test: NCI-60 one-dose screen, 48 h (100 = growth as untreated, 0 = no growth, -100 = all killed)
Conditions: 10 µM unless noted
About 83,000 compounds went through this panel and 20% of them were active in at least one assay; those are over-represented in the sample as a whole.
Give measured growth for each item. Keep answers brief.
One number for each entry, in %.

COc1cc(/C=C2\SC(=S)N(/C=C/c3nc4ccccc4[nH]c3=O)C2=O)cc(OC)c1OC : 91.7
CCCCCCCCCCCCCCCc1ccc(C(=O)C[n+]2ccccc2)cc1 : -62.1
S=c1[nH]c2cc(Cl)ccc2s1 : -43.5

// input: 3 compounds below; output: growth for each
1. COc1cc(NC(=O)C2=C(C)NC(C)=C(C(=O)Nc3cc(OC)c(Cl)cc3OC)C2c2cccc([N+](=O)[O-])c2)c(OC)cc1Cl
2. Cc1cc(C(=C2C=CC(=Nc3ccccc3)C=C2)c2ccc(Nc3ccccc3)cc2)ccc1N
3. CCCCCCCCc1cc(Cl)c(O)c(Cl)c1

Key:
1: 12.3; 2: 3.34; 3: 111

###

Tested on: UO-31 renal
Test: NCI-60 one-dose screen, 48 h (100 = growth as untreated, 0 = no growth, -100 = all killed)
Settings: 10 µM unless noted
About 83,000 compounds went through this panel and 20% of them were active in at least one assay; those are over-represented in the sample as a whole. Calls of active or inactive are those of the source. The calls were made as follows: active = growth percent below 10; inactive = the rest.
Give measured growth for each item. Keep answers brief.

CC/C(=C(/CC)c1ccc(O)cc1)c1ccc(O)cc1 : 73.2% (inactive)
CCN1CCCC(Nc2cc(C)nc(/N=C(/N)Nc3ccc(Cl)c(Cl)c3)n2)C1 (stereo unspecified) : -81.4% (active)
Cc1ccc(Nc2ccc(O)c3c2C(=O)c2c(O)ccc(Nc4ccc(C)cc4)c2C3=O)cc1 : 82.7% (inactive)
CCC1CCCCN1C(=S)N/N=C(\C)c1ccccn1 (stereo unspecified) : -17.6% (active)
O=C(Nc1ccc(Cl)c(Cl)c1)Nc1ccccc1O : 55.8% (inactive)

// input: 4 molecules below; output: growth for each
1. Cc1nnc(N/N=C/c2ccc([N+](=O)[O-])o2)[nH]c1=O
2. CCCCCCCCCCCC[N+]1(CCCCCCCCCCCC)CCCC(C)C1 (stereo unspecified)
3. O=C(O)c1cccc2cccc(-c3c4ccc(=O)c(O)c-4oc4c(O)c(O)ccc34)c12
4. CN(C)c1ccc(/C=C/c2sc3ccc4ccccc4c3[n+]2C)cc1

Key:
1. 5.83% (active)
2. -100% (active)
3. 66.6% (inactive)
4. 15.9% (inactive)

// input: 2 molecules below; output: growth for each
1. O=C(c1ccccc1)N(CCCl)C(=O)N(CCCl)C(=O)c1ccccc1
2. O=C(CCl)N1c2ccccc2Sc2c1ccc1ccccc21

Key:
82.4% (inactive)
70.4% (inactive)

###

Test system: HT29 colon
Assay: NCI-60 one-dose screen, 48 h
Conditions: 10 µM unless noted
About 83,000 compounds went through this panel and 20% of them were active in at least one assay; those are over-represented in the sample as a whole. The source made the active and inactive calls. How the source made its calls: active means growth percent below 10; inactive means the rest.
Allowed answers: active, inactive

Exercise: Please state the recorded outcome for this compound: C1=C(c2ccccc2)c2ccccc2C1
Key: inactive

Exercise: Please state the recorded outcome for this compound: CC(C)(C)c1ccc(O)c(-c2ccccc2)c1
Key: inactive

Exercise: Please state the recorded outcome for this compound: NC(=S)Nc1ccc2c(c1)Cc1ccccc1-2
Key: inactive

Exercise: Please state the recorded outcome for this compound: COC1=CC(=O)c2c(O)c3c(c(O)c2C1=O)CC(C)(O)OC3 (stereo not given)
Key: active

Exercise: Please state the recorded outcome for this compound: Oc1ccc2ccccc2c1N=Nc1nccs1
Key: inactive

Exercise: Please state the recorded outcome for this compound: Nc1ccc(-c2ccc(N)c(S(=O)(=O)O)c2)cc1S(=O)(=O)O
Key: inactive

###

System: MCF7 breast
Assay: NCI-60 one-dose screen, 48 h
Details: 10 µM unless noted
Experimental: Growth inhibition of the MCF7 human tumor cell line is measured as a screen for anti-cancer activity. Cells are grown in 96 well plates and exposed to the test compound for 48 hours. Compounds are tested at a single concentration, which is 10^-5 M for most compounds. The reported endpoint is percent growth (GI% or GIPRCNT), where numbers from 0 - 100% represent growth inhibition, and numbers from -100% - 0 represent cell death. For example, a value of 40 represents 60% growth inhibition. […]
The panel holds about 83,000 compounds, 20% with a hit somewhere; the sample as a whole holds those more often. Calls of active or inactive are those of the source. How the source made its calls: active means growth percent below 10; inactive means the rest.
Allowed answers: Yes = active, No = inactive

Some entries whose results are on file:
O=C(c1ccccc1)C(Br)C(Br)c1ccccc1 (stereo not given) : No
O=C(OC12CC3CC(CC(C3)C1)C2)c1ccc(NCc2cc(O)ccc2O)cc1 : Yes
CCCCCCN(CCCCCC)CCCNc1nccc2ccccc12 : Yes

Exercise: Please state the recorded outcome for this compound: Cn1c(COC(=O)NC2CCCCC2)c(COC(=O)NC2CCCCC2)c2ccc3cc(Cl)c(Cl)cc3c21
Key: Yes

Exercise: Please state the recorded outcome for this compound: CN(C)c1ccc(/C=C/c2ccnc3ccccc23)cc1
Key: No

Exercise: Please state the recorded outcome for this compound: COc1cc([C@@H]2c3cc4c(cc3[C@H](OC3OC5COC(c6ccccc6)OC5C(O)C3O)[C@H]3COC(=O)[C@H]23)OCO4)cc(OC)c1OC (stereo not given in full)
Key: No

Exercise: Please state the recorded outcome for this compound: COc1ccc2c(c1OC)OCC(CN(C)C)C2=O (stereo not given)
Key: No

Exercise: Please state the recorded outcome for this compound: COc1c(C)c2c(c(O)c1C/C=C(\C)CCC(=O)O)C(=O)OC2
Key: No

Exercise: Please state the recorded outcome for this compound: CN(C)c1ccc2cc3c(cc2c1)Oc1ccccc1N3.[Cl][Zn][Cl]
Key: Yes

Exercise: Please state the recorded outcome for this compound: Cc1ccc2cccc(OC(=O)Nc3cccc(C(F)(F)F)c3)c2n1
Key: No

###

System: K-562 leukemia
Test: NCI-60 one-dose screen, 48 h
Conditions: 10 µM unless noted
The panel holds about 83,000 compounds, 20% with a hit somewhere; the sample as a whole holds those more often. Activity calls are given as the source filed them. The calls were made as follows: active = growth percent below 10; inactive = the rest.
Allowed answers: active, inactive

Some entries whose results are on file:
O=C(CCl)N1c2ccccc2Sc2c1ccc1ccccc21 : inactive
CN(C)c1ccc(/C=C/c2cc[n+](C)c(/C=C/c3ccc(N(C)C)cc3)c2)cc1 : active
CCOC(=O)C1(C)CCCC1N (stereo not given) : inactive
Cc1ccccc1NC(=O)Cc1csc2[n+]1C(=O)/C(=C/c1ccc([N+](=O)[O-])cc1)S2 : inactive
CCOC(=O)C1=C(C(=O)c2ccccc2)C(c2cccc([N+](=O)[O-])c2)C(C(=O)c2ccccc2)=C(C(=O)OCC)N1 : inactive

Exercise: Please state the recorded outcome for this compound: O=C(OC12CC3CC(CC(C3)C1)C2)c1ccc(NCc2cc(O)ccc2O)cc1
Key: active

Exercise: Please state the recorded outcome for this compound: O=C(c1ccccc1)C(O)C(Br)(CBr)c1ccccc1 (stereo not given)
Key: inactive

Exercise: Please state the recorded outcome for this compound: COc1cc(NCc2ccc3nc(N)nc(N)c3c2C)cc(OC)c1OC (tested in a mixture with another compound)
Key: inactive

Exercise: Please state the recorded outcome for this compound: N#CC(I)CS(=O)(=O)c1ccccc1 (stereo not given)
Key: inactive

Exercise: Please state the recorded outcome for this compound: CCCCC(C=O)(C=C=C(C)C)CC (stereo not given)
Key: inactive

###

System: NCI-H322M lung
Experiment: NCI-60 one-dose screen, 48 h
Details: 10 µM unless noted
Compounds without any hit were thinned out: in the full panel of roughly 83,000, 20% have a hit. Active and inactive are the calls of the source. Rule for the calls: active = growth percent below 10; inactive = the rest.
Allowed answers: active, inactive

COC(=O)c1cc([N+](=O)[O-])cc([N+](=O)[O-])c1Cl : inactive
O=C(c1ccccc1)N(CCCl)C(=O)N(CCCl)C(=O)c1ccccc1 : inactive
O=C(/C=C/c1ccccc1)c1ccccc1O : inactive
c1ccc(C2NCCNC2c2ccccc2)cc1 (configuration not stated) : inactive
O=C1Nc2ccc(Br)cc2C1=O : inactive
CC(CSc1n[nH]c(=S)s1)c1ccccc1 (configuration not stated) : inactive

Exercise: Please state the recorded outcome for this compound: CN(C)CCSC1=Nc2ccc(Cl)cc2C(c2ccccc2Cl)N(C)C1 (configuration not stated)
Key: inactive

###

Give measured growth for each item. Keep answers brief.
Test system: PC-3 prostate
Experiment: NCI-60 one-dose screen, 48 h (100 = growth as untreated, 0 = no growth, -100 = all killed)
Conditions: 10 µM unless noted
The panel holds about 83,000 compounds, 20% with a hit somewhere; the sample as a whole holds those more often.
One number for each entry, in %.

Worked examples, 5 molecules total:
O=C1C=CC(=O)N1c1ccc(O)cc1 : 98.3
CCCCCCCCCCCCSC(=N)N : 33
CCCCCCCCCCCC[n+]1ccccc1 (tested in a mixture with another compound) : -61.8
O=C(O)c1ccc2c(c1)C(=O)c1ccccc1C2=O : 96.5
Cc1ccc(Nc2ccc(O)c3c2C(=O)c2c(O)ccc(Nc4ccc(C)cc4)c2C3=O)cc1 : 90.7

Next molecule, growth to be filled in.
Exercise: Write down growth measured for item CCCCC(C=O)(C=C=C(C)C)CC (stereo unspecified)
Key: 92.6
